This section presents molecules with their documented Kb values.
# Test system: microtubule (Bos taurus)
# assay.procedure: Binding affinity to microtubule (Bos taurus) after 30 mins at 40 degC by flutax-2 displacement method
Respond with a number, then the unit of measure.

CC(=O)O[C@@]12CO[C@@H]1C[C@H](O)[C@@]1(C)C(=O)[C@H](OC(=O)N(C)C)C3=C(C)[C@@H](OC(=O)[C@H](O)[C@H](C=C(F)F)NC(=O)OC(C)(C)C)C[C@@](O)([C@@H](OC(=O)c4ccccc4)[C@H]21)C3(C)C	10 ×10⁷ /M

Moving on to the next molecule.
Per the records, this molecule ( `CC(=O)O[C@@]12CO[C@@H]1C[C@H](O)[C@@]1(C)C(=O)[C@H](OC(=O)C3CC3)C3=C(C)[C@@H](OC(=O)[C@H](O)[C@H](C=C(C)C)NC(=O)OC(C)(C)C)C[C@@](O)([C@@H](OC(=O)c4ccccc4)[C@H]21)C3(C)C` ) has Kb equal to 7 ×10⁷ /M
